# studySystem: T1, Recombinant OspAST1 (residues 18–273) from B. burgdorferi B31 (Borrelia burgdorferi B31 (OspA ST1), UniProt P0CL66)
# T1 construct: source: tags removed with TEV protease; not shown: deca-histidine, N-terminal, cleaved; SUMO, N-terminal, cleaved
# T1 sequence (P0CL66 18-273): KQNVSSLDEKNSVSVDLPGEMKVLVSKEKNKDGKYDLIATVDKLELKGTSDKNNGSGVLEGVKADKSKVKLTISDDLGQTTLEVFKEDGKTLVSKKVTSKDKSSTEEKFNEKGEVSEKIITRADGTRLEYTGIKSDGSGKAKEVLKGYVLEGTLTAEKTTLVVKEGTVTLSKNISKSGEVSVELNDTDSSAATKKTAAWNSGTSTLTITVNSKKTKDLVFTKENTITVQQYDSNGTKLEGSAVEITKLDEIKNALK
# assayOverview: BLI; Octet RED96e; mAb captured on AHC sensors (0.4 µg/mL, 5 min), dipped into non-lipidated OspA 21.58 nM to 0.089 nM (10 min), dissociation 30 min; 0.1% BSA in PBS, 0.01% Tween20; global 1:1 model
# assayContext: both partners purified
endpointLabel: Kd (nM)
Reply with just the number (in nM).

227-1, recombinant human monoclonal IgG1 (antibody, V domains shown, source: Expi293 cells, transiently transfected with VH and VL plasmids, purified (Protein A)) VH: EVQLVQSGAEVKMPGESLKISCEVSGYSFTSYWIGWVRQMPGKGLEWMGIIYPGDSDTRYSPSFQGQVTISADKSISTAYLQWSSLKASDTAMYYCTRSISRSGPGFSLSWFFDYWGQGTLVTVSS VL: AIQLTQSPSSLSASVGDRVTITCRASQGISNALAWYQQKPGKAPKLLIYDASSLERGVPSRFSGSGFGTDFTLTISSLQPEDFAIYYCQQFNGFPNTFGQGTRVEIK ... 1.7

// field: Kd; key: 221-11, recombinant human monoclonal IgG1 (antibody, V domains shown, source: Expi293 cells, transiently transfected with VH and VL plasmids, purified (Protein A)) VH: EVQLVQSGAEVKKPGESLKISCQSSGYRFTIYWIGWVRQMPGKGLEWMGIIWPGDSDTRYSPSFQGQVTISADKSISTAYLQWSSLKASDTAMYYCVRGIGRYSNWFLDYWGQGTLVTVSS VL: AIQLTQSPSSLSASVGDRVTITCRASQGFSSALAWYQQKPGKAPKLLIYDASSLESGVPSRFSGSGSGTDFTLTISSLQPEDFATYYCQQFNSYPLTFGGGTKVEIK ; value = 0.35

// field: Kd; key: LA-2 IgG (antibody, V domains shown, also called OspA ST 1-specific IgG mAb LA-2) VH: QIQLVQSGPELKKPGETVKISCKASGYTFTDYSMYWVKQAPGKGLKRMGWINTETGEPTYADDFKGRFALSLDTSASTAYLHISNLKNEDTATYFCARGLDSWGQGTSVTVSS VL: DIQMTQSPSSLSATLGGKVTITCKASQDINKYIAWYQHKPGKGPRLLIHYTSTLQPGNPSRFSGSGSGRDYSFSISNLEAEDIAIYYCLQYDNLQRTFGGGTKVEIK ; value = 64

// field: Kd; key: 857-2, recombinant human monoclonal IgG1 (antibody, V domains shown, source: Expi293 cells, transiently transfected with VH and VL plasmids, purified (Protein A)) VH: EVQLVQSGEEVKKPGESLKISCKGSGYKFSSYWIGWVRQMPGKGLEWMGIIFPGDSDKRYSPSFQGQVTISADKSISTVYLQWSSLKASDTAMYYCARHITTHTYRGFFDFWGQGTLVTVSS VL: AIQLTQSPSSLSASVGDRVTITCRASQDISSALAWYQQKPGKAPKLLIYDVSSLESGVPSRFSGSGSGTDFTLTISSLQPEDFATYYCQQFNGYPHRLTFGGGTKVEIK ; value = 0.3
